Test: Ex vivo biodistribution / in vivo GRPR targeting in PC-3 tumor-bearing mice
Set-up: species or system Balb/c nu/nu mice
Conditions: Balb/c nu/nu, mouse, blood, total radioactivity; PC-3 xenografts, 1 h pi, 40 pmol / 30 kBq co-injected with 5 nmol NOTA-PEG2-RM26, average ± SD, n = 4; read-out: Uptake in blood, blocked
Where a SMILES comes first, the peptide text is derived from it. [ ]: non-standard residue; d: D form. The star is where a group is joined. Sta = CC(C)C[C@H](N)[C@@H](O)CC(=O)O; Mercaptoacetyl = O=C(CS)*; AEEA = NCCOCCOCC(=O)O
quantity-measured: tissue uptake at 1 h

Query: Value lookup for tissue uptake at 1 h; key = CC(C)C[C@H](NC(=O)C[C@H](O)[C@H](CC(C)C)NC(=O)[C@H](Cc1c[nH]cn1)NC(=O)CNC(=O)[C@@H](NC(=O)[C@H](C)NC(=O)[C@H](Cc1c[nH]c2ccccc12)NC(=O)[C@H](CCC(N)=O)NC(=O)[C@@H](Cc1ccccc1)NC(=O)COCCOCCNC(=O)[C@H](CO)NC(=O)[C@H](CO)NC(=O)[C@H](CO)NC(=O)CS)C(C)C)C(N)=O [[^99mTc]Tc-maSSS-PEG2-RM26, metal not drawn] (Mercaptoacetyl-SSS[AEEA][dF]QWAVGH[Sta]L-NH2)
Response: 0.3 %ID/g

###

Experiment: Ex vivo biodistribution / in vivo GRPR targeting in PC-3 tumor-bearing mice
Parameters: species or system Balb/c nu/nu mice
Settings: mouse, blood, total radioactivity; Balb/c nu/nu mice with PC-3 xenografts, 1 h pi, 40 pmol / 30 kBq, kit stored 18 months, average ± SD, n = 4; read-out: Uptake in blood, non-blocked
Where a SMILES comes first, the peptide text is derived from it. [ ]: non-standard residue; d: D form. The star is where a group is joined. Sta = CC(C)C[C@H](N)[C@@H](O)CC(=O)O; Mercaptoacetyl = O=C(CS)*; AEEA = NCCOCCOCC(=O)O
quantity-measured: tissue uptake at 1 h (%ID/g)
Numbers only here, please. The scale is %ID/g.

Query: Value lookup for tissue uptake at 1 h; key = CC(C)C[C@H](NC(=O)C[C@H](O)[C@H](CC(C)C)NC(=O)[C@H](Cc1c[nH]cn1)NC(=O)CNC(=O)[C@@H](NC(=O)[C@H](C)NC(=O)[C@H](Cc1c[nH]c2ccccc12)NC(=O)[C@H](CCC(N)=O)NC(=O)[C@@H](Cc1ccccc1)NC(=O)COCCOCCNC(=O)[C@H](CO)NC(=O)[C@H](CO)NC(=O)[C@H](CO)NC(=O)CS)C(C)C)C(N)=O [[^99mTc]Tc-maSSS-PEG2-RM26, metal not drawn] (Mercaptoacetyl-SSS[AEEA][dF]QWAVGH[Sta]L-NH2)
Response: 0.3

###

Test: Ex vivo biodistribution / in vivo GRPR targeting in PC-3 tumor-bearing mice
Parameters: species or system Balb/c nu/nu mice
Details: mouse, bone, total radioactivity; Balb/c nu/nu mice with PC-3 xenografts, 1 h pi, 40 pmol / 30 kBq, kit stored 18 months, average ± SD, n = 4; read-out: Uptake in bone, non-blocked
Where a SMILES comes first, the peptide text is derived from it. [ ]: non-standard residue; d: D form. The star is where a group is joined. Sta = CC(C)C[C@H](N)[C@@H](O)CC(=O)O; Mercaptoacetyl = O=C(CS)*; AEEA = NCCOCCOCC(=O)O
quantity-measured: tissue uptake at 1 h (%ID/g)
Numbers only here, please. The scale is %ID/g.

Query: Value lookup for tissue uptake at 1 h; key = CC(C)C[C@H](NC(=O)C[C@H](O)[C@H](CC(C)C)NC(=O)[C@H](Cc1c[nH]cn1)NC(=O)CNC(=O)[C@@H](NC(=O)[C@H](C)NC(=O)[C@H](Cc1c[nH]c2ccccc12)NC(=O)[C@H](CCC(N)=O)NC(=O)[C@@H](Cc1ccccc1)NC(=O)COCCOCCNC(=O)[C@H](CO)NC(=O)[C@H](CO)NC(=O)[C@H](CO)NC(=O)CS)C(C)C)C(N)=O [[^99mTc]Tc-maSSS-PEG2-RM26, metal not drawn] (Mercaptoacetyl-SSS[AEEA][dF]QWAVGH[Sta]L-NH2)
Response: 0.09

###

Experiment: Ex vivo biodistribution / in vivo GRPR targeting in PC-3 tumor-bearing mice
Design: species or system Balb/c nu/nu mice
Settings: Balb/c nu/nu, mouse, pancreas, total radioactivity; PC-3 xenografts, 1 h pi, 40 pmol / 30 kBq co-injected with 5 nmol NOTA-PEG2-RM26, average ± SD, n = 4; read-out: Uptake in pancreas, blocked
Where a SMILES comes first, the peptide text is derived from it. [ ]: non-standard residue; d: D form. The star is where a group is joined. Sta = CC(C)C[C@H](N)[C@@H](O)CC(=O)O; Mercaptoacetyl = O=C(CS)*; AEEA = NCCOCCOCC(=O)O
quantity-measured: tissue uptake at 1 h (%ID/g)
Numbers only here, please. The scale is %ID/g.

Query: Value lookup for tissue uptake at 1 h; key = CC(C)C[C@H](NC(=O)C[C@H](O)[C@H](CC(C)C)NC(=O)[C@H](Cc1c[nH]cn1)NC(=O)CNC(=O)[C@@H](NC(=O)[C@H](C)NC(=O)[C@H](Cc1c[nH]c2ccccc12)NC(=O)[C@H](CCC(N)=O)NC(=O)[C@@H](Cc1ccccc1)NC(=O)COCCOCCNC(=O)[C@H](CO)NC(=O)[C@H](CO)NC(=O)[C@H](CO)NC(=O)CS)C(C)C)C(N)=O [[^99mTc]Tc-maSSS-PEG2-RM26, metal not drawn] (Mercaptoacetyl-SSS[AEEA][dF]QWAVGH[Sta]L-NH2)
Response: 1.4

###

Experiment: Ex vivo biodistribution / in vivo GRPR targeting in PC-3 tumor-bearing mice
Parameters: species or system Balb/c nu/nu mice
Conditions: Balb/c nu/nu, mouse, tumor and spleen, total radioactivity; PC-3 xenografts, 1 h pi, 40 pmol, ± SD, n = 4; read-out: Tumor-to-spleen ratio, non-blocked group
Procedure: Randomly selected vials were stored at 4 °C at our laboratory for long-term testing. Within 18 months of storage, the vials were radiolabeled under the same conditions mentioned earlier. Additionally, the GRPR-binding in vitro was tested on a different batch of PC-3 cells, following the same protocol mentioned earlier. […] The mice were euthanized 1 h post-injection and the organs of interest were collected, weighed, and measured for their radioactivity content.
Where a SMILES comes first, the peptide text is derived from it. [ ]: non-standard residue; d: D form. The star is where a group is joined. Sta = CC(C)C[C@H](N)[C@@H](O)CC(=O)O; Mercaptoacetyl = O=C(CS)*; AEEA = NCCOCCOCC(=O)O
quantity-measured: tissue to tissue ratio at 1 h
Please give only the number in your answer, with no unit.

Query: Value lookup for tissue to tissue ratio at 1 h; key = CC(C)C[C@H](NC(=O)C[C@H](O)[C@H](CC(C)C)NC(=O)[C@H](Cc1c[nH]cn1)NC(=O)CNC(=O)[C@@H](NC(=O)[C@H](C)NC(=O)[C@H](Cc1c[nH]c2ccccc12)NC(=O)[C@H](CCC(N)=O)NC(=O)[C@@H](Cc1ccccc1)NC(=O)COCCOCCNC(=O)[C@H](CO)NC(=O)[C@H](CO)NC(=O)[C@H](CO)NC(=O)CS)C(C)C)C(N)=O [[^99mTc]Tc-maSSS-PEG2-RM26, metal not drawn] (Mercaptoacetyl-SSS[AEEA][dF]QWAVGH[Sta]L-NH2)
Response: 51

###

Assay: Ex vivo biodistribution / in vivo GRPR targeting in PC-3 tumor-bearing mice
Parameters: species or system Balb/c nu/nu mice
Settings: Balb/c nu/nu, mouse, tumor, total radioactivity; PC-3 xenografts, 1 h pi, 40 pmol / 30 kBq co-injected with 5 nmol NOTA-PEG2-RM26, average ± SD, n = 4; read-out: Uptake in tumor, blocked
Where a SMILES comes first, the peptide text is derived from it. [ ]: non-standard residue; d: D form. The star is where a group is joined. Sta = CC(C)C[C@H](N)[C@@H](O)CC(=O)O; Mercaptoacetyl = O=C(CS)*; AEEA = NCCOCCOCC(=O)O
quantity-measured: tissue uptake at 1 h (%ID/g)
Numbers only here, please. The scale is %ID/g.

Query: Value lookup for tissue uptake at 1 h; key = CC(C)C[C@H](NC(=O)C[C@H](O)[C@H](CC(C)C)NC(=O)[C@H](Cc1c[nH]cn1)NC(=O)CNC(=O)[C@@H](NC(=O)[C@H](C)NC(=O)[C@H](Cc1c[nH]c2ccccc12)NC(=O)[C@H](CCC(N)=O)NC(=O)[C@@H](Cc1ccccc1)NC(=O)COCCOCCNC(=O)[C@H](CO)NC(=O)[C@H](CO)NC(=O)[C@H](CO)NC(=O)CS)C(C)C)C(N)=O [[^99mTc]Tc-maSSS-PEG2-RM26, metal not drawn] (Mercaptoacetyl-SSS[AEEA][dF]QWAVGH[Sta]L-NH2)
Response: 0.89
